Assay: Urinary excretion of phenolic metabolites after intake of the GCPE nutraceutical
Settings: week 8, interval 11–24 h
Label condition met when Amount excreted in urine, 11-24 h is strictly below 1 µmol; at or above that, label condition not met.

| Compound | Assigned category |
| --- | --- |
| O=C(/C=C/c1ccc(O)c(O)c1)OC1[C@H](O)CC(O)(C(=O)O)C[C@H]1O (stereo partly shown) [4-Caffeoylquinic acid] | condition met |
| COc1ccc(CCC(=O)O)cc1OS(=O)(=O)O [DHiFA-3′-sulfate] | condition not met |
| COc1cc(CCC(=O)OC2CC(O)(C(=O)O)CC(O)C2O)ccc1O (stereo not shown) [5-Dihydroferuloylquinic acid] | condition met |
| O=C(/C=C/c1ccc(O)c(O)c1)O[C@@H]1C[C@@](O)(C(=O)O)C[C@@H](O)[C@@H]1O [5-Caffeoylquinic acid] | condition met |
| COc1cc(CCC(=O)OC2C(O)CC(O)(C(=O)O)CC2O)ccc1O (stereo not shown) [4-Dihydroferuloylquinic acid] | condition met |
| O=C(O)/C=C/c1ccc(O)c(O)c1 [CA, 3′,4′-Dihydroxycinnamic acid] | condition met |
| O=C(O)c1cccc(O)c1 [3-Hydroxybenzoic acid] | condition met |
| COc1cc(CC(=O)O)ccc1O [4′-Hydroxy-3′-methoxyphenylacetic acid] | condition not met |

Exercise: Record O=C(O)CCc1ccc(O)c(O[C@@H]2O[C@H](C(=O)O)[C@@H](O)[C@H](O)[C@H]2O)c1 [DHCA-3′-glucuronide] : is its Amount excreted in urine, 11-24 h strictly below 1 µmol?
Solution: condition met

Exercise: How about O=C(O)Cc1ccc(O)c(O)c1 [3′,4′-Dihydroxyphenylacetic acid] ?
Solution: condition met

Exercise: Quick one: O=C(O)c1ccc(O)cc1 [4-Hydroxybenzoic acid]
Solution: condition met

---

For each entry below, report its AUC0–24h value.
Test: Plasma pharmacokinetics of phenolic metabolites after intake of the GCPE nutraceutical (LC-MS-QToF)
Details: week 0
Answers are plain numbers, in µM/min.

Below, 3 compounds whose answers are already recorded.
| Compound | Measured value |
| --- | --- |
| O=C(O)Cc1ccc(O)cc1 [4′-Hydroxyphenylacetic acid] | 2 |
| O=C(O)/C=C/c1ccc(OS(=O)(=O)O)cc1 [CoA-4′-sulfate, Cinnamic acid-4′-sulfate] | 0.2 |
| O=C(O)C=Cc1ccc(OC2OC(C(=O)O)C(O)C(O)C2O)cc1 (stereo not shown) [CoA-4′-glucuronide, Cinnamic acid-4′-glucuronide] | 0.72 |

// moving on: another record for AUC0–24h
Exercise: I have this compound here, COc1cc(C=CC(=O)O)ccc1OC1OC(C(=O)O)C(O)C(O)C1O (stereo not shown) [FA-4′-glucuronide, 3′-Methoxycinnamic acid-4′-glucuronide] , and I need its recorded AUC0–24h.
Solution: 0.06

---

Give measured Amount excreted in urine, 6-9 h for each item. Keep answers brief.
Assay: Urinary excretion of phenolic metabolites after intake of the GCPE nutraceutical
Details: week 0, interval 6–9 h
The answer consists of two parts: a number and, after it, its unit.

| Compound | Property name | Measured value |
| --- | --- | --- |
| O=C(/C=C/c1ccc(O)c(O)c1)O[C@@H]1C[C@](O)(C(=O)O)C[C@@H](O)[C@H]1O | Amount excreted in urine, 6-9 h | 0.022 µmol |
| COc1cc(CCC(=O)OC2C(O)CC(O)(C(=O)O)CC2O)ccc1O (stereo not drawn) [4-Dihydroferuloylquinic acid] | Amount excreted in urine, 6-9 h | 0.013 µmol |
| COc1ccc(CCC(=O)O)cc1OS(=O)(=O)O [DHiFA-3′-sulfate] | Amount excreted in urine, 6-9 h | 0.4 µmol |

// each listed compound needs a value for Amount excreted in urine, 6-9 h
1. COc1ccc(/C=C/C(=O)NCC(=O)O)cc1O
2. COc1cc(/C=C/C(=O)NCC(=O)O)ccc1O
3. O=C(/C=C/c1ccc(O)c(O)c1)O[C@@H]1C[C@@](O)(C(=O)O)C[C@@H](O)[C@@H]1O
4. O=C(O)CCc1ccc(O[C@@H]2O[C@H](C(=O)O)[C@@H](O)[C@H](O)[C@H]2O)cc1 [DHCoA-4′-glucuronide, 3-(Phenyl)propanoic acid-4′-glucuronide]
5. O=C(CCc1ccc(O)c(O)c1)OC1C(O)CC(O)(C(=O)O)CC1O (stereo not drawn) [4-Dihydrocaffeoylquinic acid]
6. COc1ccc(/C=C/C(=O)O)cc1O [iFA, 3′-Hydroxy-4′-methoxycinnamic acid]
7. O=C(CCc1ccc(O)c(O)c1)OC1CC(O)(C(=O)O)CC(O)C1O (stereo not drawn) [3-Dihydrocaffeoylquinic acid]

Solution:
1: 0.08 µmol; 2: 4 µmol; 3: 0.03 µmol; 4: 0.26 µmol; 5: 0.005 µmol; 6: 0.27 µmol; 7: 0.05 µmol
